// provenance: patent USRE39061E1

CC50 for assorted compounds
# System: HL60/MX1
# Type: cell-based

Previously resolved entries follow.
# compound, CC50
records = [
    ("CC(=O)OCC=C(C)CC[C@@H]1[C@@]2(C)CCCC(C)(C)[C@@H]2CC[C@@]1(C)O [Label-13-ene-8, 15-yl acetate, labd-13-ene,8α-ol,15-yl acetate]", "106 µM"),
    ("C=C[C@](C)(O)CC[C@@H]1[C@@]2(C)CCCC(C)(C)[C@@H]2CC[C@@]1(C)O [Label-14-ene-8, 13 diol, labd-14-ene-8,13-diol]", "80.9 µM"),
]

Now for a further compound.
Return reported CC50; argument: CC(=CCO)CC[C@@H]1[C@@]2(C)CCCC(C)(C)[C@@H]2CC[C@@]1(C)O [Label-13-ene-8, 15 diol, labd-13-ene-8α,15-diol] 108 µM

* * *

# System: PBML (stimulating)
# Type: cell-based, human
assay-readout: CC50

Previously resolved entries follow.
# molecule, CC50
rows = [
    ("CC(=CCO)CC[C@@H]1[C@@]2(C)CCCC(C)(C)[C@@H]2CC[C@@]1(C)O [Label-13-ene-8, 15 diol, labd-13-ene-8α,15-diol]", "> 100 µM"),
    ("C=C[C@](C)(O)CC[C@@H]1[C@@]2(C)CCCC(C)(C)[C@@H]2CC[C@@]1(C)O [Label-14-ene-8, 13 diol, labd-14-ene-8,13-diol]", "89 µM"),
]

Now for a further molecule.
Return reported CC50; argument: CC(=O)OCC=C(C)CC[C@@H]1[C@@]2(C)CCCC(C)(C)[C@@H]2CC[C@@]1(C)O [Label-13-ene-8, 15-yl acetate, labd-13-ene,8α-ol,15-yl acetate] > 100 µM

* * *

# Test system: RPMI 8226
# measurement-description: Cytotoxic activity, MTT method, 48 h
# Assay type: cell-based
assay-readout: CC50 (µM)
Respond numerically; units are µM and should not be typed.

Previously resolved entries follow.
# compound, units, CC50
records = [
    ("CC(=CCO)CC[C@@H]1[C@@]2(C)CCCC(C)(C)[C@@H]2CC[C@@]1(C)O [Label-13-ene-8, 15 diol, labd-13-ene-8α,15-diol]", "µM", 118),
    ("CC(=O)OCC=C(C)CC[C@@H]1[C@@]2(C)CCCC(C)(C)[C@@H]2CC[C@@]1(C)O [Label-13-ene-8, 15-yl acetate, labd-13-ene,8α-ol,15-yl acetate]", "µM", 95.5),
]

Return reported CC50; argument: C=C[C@](C)(O)CC[C@@H]1[C@@]2(C)CCCC(C)(C)[C@@H]2CC[C@@]1(C)O [Label-14-ene-8, 13 diol, labd-14-ene-8,13-diol] 70.7

* * *

# Test system: CCRF-CEM
# measurement-description: Cytotoxic activity, MTT method, 48 h
# Type: cell-based
CC50 for assorted molecules
Respond numerically; units are µM and should not be typed.

Previously resolved entries follow.
# molecule, tested-system, CC50 [µM]
data = [
    ("CC(=O)OCC=C(C)CC[C@@H]1[C@@]2(C)CCCC(C)(C)[C@@H]2CC[C@@]1(C)O [Label-13-ene-8, 15-yl acetate, labd-13-ene,8α-ol,15-yl acetate]", "CCRF-CEM", 187),
    ("C=C[C@](C)(O)CC[C@@H]1[C@@]2(C)CCCC(C)(C)[C@@H]2CC[C@@]1(C)O [Label-14-ene-8, 13 diol, labd-14-ene-8,13-diol]", "CCRF-CEM", 85),
]

Now for a further molecule.
Return reported CC50; argument: CC(=CCO)CC[C@@H]1[C@@]2(C)CCCC(C)(C)[C@@H]2CC[C@@]1(C)O [Label-13-ene-8, 15 diol, labd-13-ene-8α,15-diol] 200
